# target.or.test.system: Solute carrier family 2, facilitated glucose transporter member 1 (Homo sapiens)
# assay: ST_JUDE_LEISH: Cytotoxicity at 2uM final concentration against transgenic Leishmania Mexicana promastigotes LmGLUT1 that are glucose transport deficient and complemented with the human glucose transporter GLUT1. Activity is measured by DNA content using SYBR green in vitro
# Type: functional
Classification field: enter yes (1) for inhibition values not below 4%, no (0) for values below it.

Study these solved cases before continuing.
compound	cat
Fc1ccc(-c2oc(C3CCN(CCc4ccc(-c5noc(=S)[nH]5)cc4)CC3)nc2COCC(F)(F)F)cc1	yes (1)
CNCCNCc1ccc(-c2ccc(-c3nc4cccc(C)c4[nH]3)cc2)cc1	yes (1)
CC(C)CNCc1cccc(-c2cccc(CN(CCCN3CCN(C)CC3)C(=O)CCC3CCCC3)c2)c1	yes (1)
CS(=O)(=O)Nc1cccc(-c2cnc3[nH]cc(-c4ccc(CCC(=O)O)cc4)c3c2)c1	no (0)
Fc1ccc2[nH]c(-c3ccc(-c4ccc(CN5CCN(c6cnccn6)CC5)cc4)s3)nc2c1	no (0)
Cc1cc2nc(-c3ccc(SCC(=O)Nc4ccc5c(c4)OCCO5)nc3)[nH]c2cc1C	no (0)
Cc1ccc(S(=O)(=O)NC2CCN(c3ccnc4cc(Cl)ccc34)C2)cc1 (centres undefined)	no (0)
Cc1cc(N[C@@H](CC(C)C)C(=O)NCCc2ccccc2)nc(NCc2ccccc2C)n1	no (0)

Would you kindly look at the next entry?
Textbook exercise: given the entry `N=C(N)NC(=O)Nc1cc(Cl)c(Br)c(Cl)c1` , state whether its inhibition is greater than or equal to 4%.
no (0)

* * *

# target.or.test.system: Hexose transporter 1 (Plasmodium falciparum) (UniProt O97467)
# assay: ST_JUDE_LEISH: Cytotoxicity at 2uM final concentration against transgenic Leishmania Mexicana promastigotes LmPfHT that are glucose transport deficient and complemented with the Plasmodium falciparum hexose transporter. Activity is measured by DNA content using SYBR green in vitro
# Format: functional
Below, each of the compounds is paired with its reported inhibition value.
Use % as the unit, but write only the number.

compound	unit.string	inhibition
Cc1noc(C)c1-c1cccc(CNCc2ccc(-c3cccc(-c4nc5cccc(C)c5[nH]4)c3)cc2)c1	%	-2.28

Now examine the next entry.
Param item = `c1cc(CNCCc2ccncc2)cc(-c2csc(-c3nc4ccccc4[nH]3)c2)c1` ; retrieve measured inhibition.
-1.59

* * *

# target.or.test.system: Hexose transporter 1 (Plasmodium falciparum)
# assay: ST_JUDE_LEISH: Cytotoxicity at 2uM final concentration against transgenic Leishmania Mexicana promastigotes LmPfHT that are glucose transport deficient and complemented with the Plasmodium falciparum hexose transporter. Activity is measured by DNA content using SYBR green in vitro
# Type: functional
Below, each of the molecules is paired with its reported inhibition value.
Use % as the unit, but write only the number.

molecule	inhibition (%)
CC(=O)Nc1cccc(/C=C/C(=O)N2CCC(N3CCCCC3)CC2)c1	1.03
CN1CCN(c2ccnc3ccc(NC(=O)Nc4ccc5c(c4)CCC5=O)cc23)CC1	2.43
Cc1ccc(S(=O)(=O)c2nc(S(=O)(=O)c3ccccc3)sc2NCC2CCCO2)cc1 (stereo not given)	11.1

Param item = `CC(C)CNCc1cccc(-c2ccc(CN(C(=O)NCCc3ccccc3)C3CCN(Cc4ccccc4)CC3)cc2)c1` ; retrieve measured inhibition.
79.1

Param item = `COc1ccc(O)cc1Cc1cnc2nc(N)nc(N)c2c1C` ; retrieve measured inhibition.
1.16

Param item = `COc1ccc(-c2cn3c(C(=O)Nc4ccccc4Cl)c(-c4ccccc4)c4c3n2CCCC4)cc1` ; retrieve measured inhibition.
0.92

* * *

# target.or.test.system: Solute carrier family 2, facilitated glucose transporter member 1 (Homo sapiens)
# assay: ST_JUDE_LEISH: Cytotoxicity at 2uM final concentration against transgenic Leishmania Mexicana promastigotes LmGLUT1 that are glucose transport deficient and complemented with the human glucose transporter GLUT1. Activity is measured by DNA content using SYBR green in vitro
# Type: functional
reported.metric: inhibition (%)
Use % as the unit, but write only the number.

Answered cases to consult:
compound	inhibition, %
O=C(NCCCN1CCC(N2CCCCC2)CC1)c1ccc(N2CCOc3ccccc32)s1	1.25
O=C(Nc1ccc(Cn2nc(Cl)c(N3CCCNCC3)cc2=O)cc1)Nc1ccc(-c2ccccc2)cc1	19.7
CCNc1cc(C(=O)N[C@@H](Cc2ccccc2)[C@H](O)CNC2CCCCC2)cc(N2CCCCS2(=O)=O)c1	8.15
Cc1nc(C)c(-c2ccc(Oc3ccc(OC(F)(F)F)cc3)cc2)c(OC(=O)c2ccccc2)c1Cl	2.27
CCCc1c(Cl)cc(CNCCCNc2nc3ccncc3[nH]2)cc1Cl	1.35

Param item = COc1ccccc1C1CCN(C2CCC(NC(=O)/C=C/c3cc(C(F)(F)F)cc(C(F)(F)F)c3)CC2)CC1 (centres undefined) ; retrieve measured inhibition.
-3.08

Param item = COc1cccc(C(O)CNc2ccnc(Nc3ccc(Cl)cc3)n2)c1 (centres undefined) ; retrieve measured inhibition.
6

Param item = CCNc1cc(C(=O)N[C@@H](Cc2ccccc2)[C@H](O)CNC(CC)c2cccc(Cl)c2)cc(N2CCCC2=O)c1 (some centres undefined) ; retrieve measured inhibition.
3.51

Param item = Cc1c(S(=O)(=O)Nc2ccc3nccc(N4CC(C)NC(C)C4)c3c2)sc2ccc(Cl)cc12 (centres undefined) ; retrieve measured inhibition.
5.22

* * *

# target.or.test.system: Hexose transporter 1 (Plasmodium falciparum) (UniProt O97467)
# assay: ST_JUDE_LEISH: Cytotoxicity at 2uM final concentration against transgenic Leishmania Mexicana promastigotes LmPfHT that are glucose transport deficient and complemented with the Plasmodium falciparum hexose transporter. Activity is measured by DNA content using SYBR green in vitro
# Type: functional
Below, each of the compounds is paired with its reported inhibition value.
Use % as the unit, but write only the number.

compound	unit.string	inhibition
CCCN(CCC)CC(O)COc1ccccc1C(=O)Nc1ccccc1 (centres undefined)	%	1.09

Param item = `CN(C)c1ccc(-c2ccc(C(=O)NC3CCN(Cc4cccc(C(F)(F)F)c4)CC3)s2)cc1` ; retrieve measured inhibition.
6.03

Param item = `CC(C)(C)c1ccc2oc(=O)n(C3CCN(C(=O)c4ccc([N+](=O)[O-])o4)CC3)c2c1` ; retrieve measured inhibition.
10.9

* * *

Below, each of the compounds is paired with its reported inhibition value.
# target.or.test.system: Solute carrier family 2, facilitated glucose transporter member 1 (Homo sapiens) (UniProt P11166)
# Sequence (P11166 whole entry): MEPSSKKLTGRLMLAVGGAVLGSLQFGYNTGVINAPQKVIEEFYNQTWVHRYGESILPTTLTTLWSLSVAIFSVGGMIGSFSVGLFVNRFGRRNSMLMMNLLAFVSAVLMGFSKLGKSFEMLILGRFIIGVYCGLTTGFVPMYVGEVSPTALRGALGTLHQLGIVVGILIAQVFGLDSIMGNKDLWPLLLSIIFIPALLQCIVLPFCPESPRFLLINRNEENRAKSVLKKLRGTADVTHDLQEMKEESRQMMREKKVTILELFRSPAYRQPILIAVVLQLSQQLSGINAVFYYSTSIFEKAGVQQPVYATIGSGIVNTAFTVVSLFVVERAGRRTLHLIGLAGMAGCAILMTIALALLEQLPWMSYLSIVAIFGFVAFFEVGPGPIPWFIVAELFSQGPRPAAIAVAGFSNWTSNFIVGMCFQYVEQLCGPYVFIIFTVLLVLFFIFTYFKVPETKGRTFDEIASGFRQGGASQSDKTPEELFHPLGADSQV
# assay: ST_JUDE_LEISH: Cytotoxicity at 2uM final concentration against transgenic Leishmania Mexicana promastigotes LmGLUT1 that are glucose transport deficient and complemented with the human glucose transporter GLUT1. Activity is measured by DNA content using SYBR green in vitro
# Type: functional
Use % as the unit, but write only the number.

Answered cases to consult:
compound	inhibition / %
O=C(Nc1ccc(F)cc1)c1cnc(N2CCN(c3ccncc3)CC2)c(Cl)c1	16
O=C(NC1CCC(N2CCC(O)(c3ccc(F)cc3)CC2)CC1)c1cc2ccccc2[nH]1 (stereo not given)	1.2
CC(C)c1ccc(NC(=O)NCCCC2CCCN(CCCCCNC(=O)/C=C/c3ccc(Cl)c(Cl)c3)C2)cc1 (stereo not given)	1.47
O=C(/C=C/c1ccc(Cl)c(Cl)c1)NCCCCN1CCC(c2c[nH]c3ccccc23)CC1	-2.39
Cc1ccc(NC(=O)c2ccc3ncccc3c2)cc1OC1CCN(CCC(C)C)CC1	3.07
CCCC(C)Nc1nc(C)cc(N[C@@H](Cc2ccccc2)C(=O)NCCOc2ccccc2)n1 (stereo not given in full)	4.27
COc1ccc2c(=NN=Cc3cccc(C)n3)cc(-c3ccccc3)[nH]c2c1	4.3
COc1ccc(CCNCCCCCNCCCc2ccc(Cl)cc2)cc1OC	-1.33
O=C1SC(=Cc2ccc(O)c(O)c2)C(=O)N1c1ccccc1	2.29
Nc1ncc(-c2ccccc2)cc1-c1nc2cc(Cl)c(F)cc2[nH]1	7.29

Param item = Cc1ccc(S(=O)(=O)c2nc(S(=O)(=O)c3ccccc3)sc2NCC2CCCO2)cc1 (stereo not given) ; retrieve measured inhibition.
11.8

Param item = COC(=O)C1=C(C)NC2=C(C(=O)CC(c3ccc(OC)c(OC)c3)C2)C1c1cccc(O)c1 (stereo not given) ; retrieve measured inhibition.
3.8

* * *

# target.or.test.system: Solute carrier family 2, facilitated glucose transporter member 1 (Homo sapiens) (UniProt P11166)
# assay: ST_JUDE_LEISH: Cytotoxicity at 2uM final concentration against transgenic Leishmania Mexicana promastigotes LmGLUT1 that are glucose transport deficient and complemented with the human glucose transporter GLUT1. Activity is measured by DNA content using SYBR green in vitro
# Format: functional
Below, each of the compounds is paired with its reported inhibition value.
Use % as the unit, but write only the number.

compound	unit.string	inhibition
Cc1ccc(Cl)cc1NC(=O)c1c(-c2ccccc2Cl)noc1C	%	-0.47
Oc1ccc(-c2nc(-c3ccc4oc5ccc(-c6[nH]c(-c7ccc(O)cc7)nc6-c6ccccc6)cc5c4c3)c(-c3ccccc3)[nH]2)cc1	%	-2.06
COc1ccc2c(=NN=Cc3cccc(Cl)c3)cc(C)[nH]c2c1	%	2.13
Nc1ncc(-c2ccc3ncccc3c2)c(N)n1	%	0.18
OCC1CCCCN1Cc1cccc(-c2cccc(-c3nc4ccccc4[nH]3)c2)c1 (centres undefined)	%	6.6

Param item = `COc1ccc(-c2ccc(NC(=O)c3ccc(Cl)cc3)cc2)cc1CN1CCNCC1` ; retrieve measured inhibition.
1.97

Param item = `CC(C)NCc1ccc(-c2ccc(NS(=O)(=O)c3cccc4cccnc34)cc2)cc1` ; retrieve measured inhibition.
16.1

Param item = Cc1cc2ccc(/C=C/C(=O)NC3CCC(CCN4CCc5ccc(C#N)cc5CC4)CC3)cc2[nH]1 (centres undefined) ; retrieve measured inhibition.
4.47

Param item = `CCNc1cc(C(=O)N[C@@H](Cc2ccccc2)[C@H](O)CN[C@@H]2CCc3ccccc32)cc(N2CCCC2=O)c1` ; retrieve measured inhibition.
10.5
